Reference source for all entries: paper PMC8000760

Test system: HUVECs
assay.overview: MTS cell viability assay
Type: cell-based, human
assay.conditions: Homo sapiens, HUVEC, HUVECs, 48 h
value.type: IC50 (µM)
Numbers only; they are read as µM.

[Q] Endpoint output: IC50 of CCCCCC(=O)Cc1cc(O)cc2c1C(=O)Oc1cc(O)c(C(=O)O)c(CCCCC)c1O2 . Value?
[A] 92.8

---

Test system: MCF-10A
assay.overview: BrdU cell proliferation assay
Assay type: cell-based, human
assay.conditions: Homo sapiens, 72 h
value.type: IC50 (µM)
Unit µM implied. Number only.

[Q] Look up IC50: CCCCCC(=O)Cc1cc(O)cc2c1C(=O)Oc1cc(O)c(C(=O)O)c(CCCCC)c1O2 [Phy, physodic acid]
[A] 155
